assay: in vitro; details: human, hela cells, % viability
Assign labels as follows, please: Y for viability at 28.5 h, 10 µM below 90%; N for viability at 28.5 h, 10 µM equal to or exceeding 90%.

                                    compound  class
 0  O=C1CC(c2nc(-c3ccncc3)no2)CN1c1ccc2c(c1)OCO2 (stereo not drawn)      N
 1  CC(C)C(CNCc1ccc(F)c(Cl)c1)c1ccnn1C (stereo not drawn)      Y
 2  CN(C)CCN(C)C(=O)c1cc(Br)cnc1N(C)S(C)(=O)=O      N
 3        S=c1nc(-c2ccccc2)n(-c2ccccc2)[nH]1      N
 4  O=C(C1=C(O)C(=O)N(CCCN2CCOCC2)C1c1ccc(Cl)c(Cl)c1)c1cccs1 (stereo not drawn)      N
 5  CN1CCN(c2nccnc2OCC2COc3ccccc3O2)CC1 (stereo not drawn) [CBK003899C]      N
 6  CO/N=C(/C(=O)O)c1cn2cc(Br)ccc2n1 [CBK260925G]      Y
 7  Cc1ccc(S(=O)(=O)NC(CO)C(=O)O)cc1 (stereo not drawn)      N
 8      COc1cccc2cc(C(=O)NCc3c(F)cccc3F)oc12      Y
 9  CC1c2ccsc2CCN1S(C)(=O)=O (stereo not drawn)      Y
10  CCOC(=O)c1sc(NC(=O)Nc2cccc(Cl)c2)c(C(N)=O)c1C      N
11  O=C(COc1ccc(S(=O)(=O)N2CCOCC2)cc1)NCc1ccco1      N
12  Cc1cc(C(=O)N2CCN(C(=O)c3cn(Cc4ccc(S(C)(=O)=O)cc4)nn3)CC2)n(C)n1 [CBK160824T]      N
13  O=C(COc1ccc2ccccc2c1)Nc1ccc(N2CCN(Cc3ccccc3)CC2)cc1      N
14    CCOC(=O)c1cccc(-c2ccc(OC(F)(F)F)cc2)n1      N
15    COc1ccc(Cc2nc(C3CC3)n(CC(F)(F)F)n2)cc1      N
16   CC1(NC(=O)Cn2c(C(F)(F)F)nc3ccccc32)CCC1      Y
17  COc1ccc(C(=O)NC(=S)Nc2ccccc2N2CCN(C)CC2)cc1[N+](=O)[O-] [CBK268292C]      Y
18  CCCn1cc(NC(=O)NC(CC)(CO)c2ccccc2)ccc1=O (stereo not drawn)      N
19  COc1cc(NS(=O)(=O)c2cc(C(=O)O)c(Cl)cc2Cl)cc(OC)c1      N
20     Brc1ccc(-c2ccnc3nc(-c4ccncc4)nn23)cc1      N
21        O=c1oc2ccccc2n1Cc1coc(-c2ccccc2)n1      N
22  CC1CCN(Cc2ccc(-c3nnn(CC(=O)NCc4ccc(S(C)(=O)=O)cc4)n3)cc2)CC1 [CBK144152C]      N
23  COc1cc(F)ccc1S(=O)(=O)NC1CC(C)(C)NC(C)(C)C1      N
24  N#Cc1ccc(NCc2ccccc2CN2CCCC2CO)cn1 (stereo not drawn)      N
25        Cc1ccc(C(=O)NNC(=O)/C=C\C(=O)O)cc1      Y
26           CN(C)C(=O)CN1CCN(CCc2ccccc2)CC1      N
27  CCCN1CCC(NC(C)CCCC(C)(C)O)CC1 (stereo not drawn)      N
28        O=c1[nH]nc2c(N3CCc4ccccc4C3)nccn12      Y
29  Cc1ccc(OCC(O)CNC(=O)c2ccccc2C(=O)O)cc1 (stereo not drawn)      N
30  COc1ccc(-c2nn(CC(=O)O)cc2/C=C/c2cc(C(F)(F)F)nc(=O)[nH]2)cc1      Y
31  O=C(c1cnn(-c2ccc(Cl)cc2)c1C(F)(F)F)N1CCN(c2ncccn2)CC1      N
